- System: 786-0 renal
- experiment.description: NCI-60 one-dose screen, 48 h
- experimental.setup: 10 µM unless noted
Compounds without any hit were thinned out: in the full panel of roughly 83,000, 20% have a hit. Activity calls are given as the source filed them. How the source made its calls: active means growth percent below 10; inactive means the rest.
Answer with one of the outcomes y for active, n for inactive

Field: example entries. Status: answers known.
{"columns": ["test.smiles", "category.label"],
 "data": [
  ["O=C1/C(=C/c2ccc(Cl)c(Cl)c2)CN(C(=O)C(Cl)Cl)C/C1=C\\c1ccc(Cl)c(Cl)c1", "y"],
  ["CCOC(=O)c1cn2ncnc(Oc3ccc(NC(=O)NC4CCCCC4)c(Cl)c3)c2c1C", "n"],
  ["CCCCCCNC(=O)Oc1ccc(/C(=C(/C)Cc2ccc(OC)cc2)c2ccc(OCCCN(C)C)cc2)cc1", "n"],
  ["CCCNC(=O)Oc1ccc(/C(=C(/C)Cc2ccc(OC)cc2)c2ccc(OCCCN(C)C)cc2)cc1", "n"],
  ["CC(=O)OCc1nc(C#N)c(N(C)C)o1", "n"],
  ["CCOC(=O)C#Cc1c(C(=O)OCC)nnn1[C@@H]1O[C@H](CO)[C@H]2OC3(CCCCC3)O[C@H]21", "n"],
  ["CCOC(=O)C(=Cc1cccc(Br)c1)C(=O)OCC", "n"],
  ["Clc1ccc2c(c1)N(c1ncnc3ccc(-c4cnc5[nH]ncc5c4)cc13)CC2", "n"]
]}

Consider now this further molecule.
Q: I would be grateful if you could indicate the recorded call for CCOC(=O)/C=C1\S/C(=N\Nc2cc(=O)[nH]c3ccc(Cl)cc23)N(c2ccccc2)C1=O .
Ans: n

###

- Tested on: SK-MEL-28 melanoma
- experiment.description: NCI-60 one-dose screen, 48 h
- experimental.setup: 10 µM unless noted
Compounds without any hit were thinned out: in the full panel of roughly 83,000, 20% have a hit. Activity calls are given as the source filed them. How the source made its calls: active means growth percent below 10; inactive means the rest.
Choose the fitting class; nothing outside yes = active, no = inactive is accepted.

{"columns": ["compound", "category.label"],
 "data": [
  ["N#Cc1cccc(NC(=O)c2oc3ccccc3c2-c2cnn(-c3ccccc3)c2)c1", "no"],
  ["O=C(NCc1ccccc1)Nc1ccccc1CNc1nc(Nc2ccc(OCCN3CCCC3)cc2)ncc1Cl", "no"],
  ["CCOC(=O)c1cn2ncnc(Oc3ccc(NC(=O)NC4CCCCC4)c(Cl)c3)c2c1C", "no"],
  ["O=C(O)/C(=C\\c1ccc(Cl)cc1)c1ccc(Cl)cc1", "no"],
  ["Cc1cc(N)c2cc(NC(=O)/C=C\\c3ccccc3Cl)ccc2n1", "yes"],
  ["O=S(=O)(NCCNc1nccc(-c2c(-c3cccc(F)c3)nc3occn23)n1)c1ccc(Br)cc1", "no"],
  ["Fc1cc2c(cc1Cl)N(c1ncnc3ccc(-c4cnc5[nH]ncc5c4)cc13)CC2", "no"],
  ["COc1cc(-c2cc(-c3cccs3)c(C#N)c(N3CCOCC3)n2)cc(OC)c1OC", "no"]
]}

Alright, here's another compound for you.
Q: // param item: CC1(c2ccccc2O)NN=C(/N=C/c2cccc([N+](=O)[O-])c2)N1C(Cc1c[nH]c2ccccc12)C(=O)O (centres undefined) ; yields the recorded call
Ans: no

###

- Tested on: UACC-62 melanoma
- experiment.description: NCI-60 one-dose screen, 48 h (100 = growth as untreated, 0 = no growth, -100 = all killed)
- experimental.setup: 10 µM unless noted
The panel holds about 83,000 compounds, 20% with a hit somewhere; the sample as a whole holds those more often.
// NOT MET strictly below 50% in growth; MET otherwise

# example entries with known answers
{"columns": ["compound", "category.label"],
 "data": [
  ["COc1ccc2cc(C(=O)c3coc4ccc(O)cc34)ccc2c1", "MET"],
  ["Cc1cc2c(O)c(-c3cccc(Cl)c3)c3sc(=O)oc3c2cc1C", "NOT MET"],
  ["CCOC(=O)c1[nH]c(=O)c2c(C)nc(-c3ccccc3)cc2c1O", "MET"],
  ["CCOC(=O)C#Cc1c(C(=O)OCC)nnn1[C@@H]1O[C@H](CO)[C@H]2OC3(CCCCC3)O[C@H]21", "MET"],
  ["COc1ccc2[nH]cc(-c3nc(-c4c[nH]c5ccncc45)cs3)c2c1", "MET"],
  ["O=C(NNc1nccc(Nc2ccc(S(=O)(=O)Nc3ccncc3)cc2)n1)c1ccccc1", "MET"],
  ["CCN(CC)c1nc(SCc2ccccc2Cl)ncc1C", "MET"],
  ["C[C@H](NC(=O)[C@@H](C)N)[C@H](Oc1ccc2c(cnn2-c2ccc(F)cc2)c1)c1ccc2c(c1)OCCO2", "NOT MET"],
  ["COc1ccc(C(=O)Nc2ncc(Cc3ccc(F)cc3)s2)cc1", "NOT MET"],
  ["c1ccc(C2=NN[C@H](c3cn(-c4ccccc4)nc3-c3ccccc3)C2)cc1", "MET"]
]}

Q: Check if growth >= 50% (inclusive). Item: NC(=O)c1c(NC(=O)c2ccccc2)sc2c1CCC(=O)C2
Ans: NOT MET

Q: API: above_or_equal(metric=growth, cutoff=50%) for item O=C(Nc1cccnc1Nc1ccc(F)cc1)c1cn(Cc2cccc(Oc3ccccc3)c2)nn1
Ans: NOT MET

Q: Reported growth reaches at least 50% for Cc1cc(=O)[nH]c2c(C#N)cnn12 ?
Ans: MET

Q: Assess whether reported growth for COc1cc2c(c(OC)c1OC)CCC(c1cccc(C(=O)Nc3cccc(Br)c3)c1)O2 (stereo unspecified) sits at 50% or higher.
Ans: MET

Q: Reported growth at or above 50%? COC(=O)c1c2c(c(C)[n+]([O-])c1C)C(=O)C(NCc1ccc(Cl)cc1)=CC2=O
Ans: NOT MET

Q: Hi team, for COC(=O)c1cc(-c2ccc(S(C)(=O)=O)cc2)[nH]c1N/N=C/c1c(Cl)cccc1Cl , is the recorded growth at or above 50%?
Ans: MET

Q: Hi, just wondering whether CCOC(=O)c1nc(Nc2ccc(NC(=O)Nc3ccc(F)cc3)cc2)c2ccccc2n1 shows growth of 50% or higher.
Ans: MET

Q: State whether the measured growth reaches 50%, counting equality as reaching it, for CC(=O)N(N=Nc1ccccc1)c1cccc2ccccc12
Ans: MET

Q: Does growth meet or surpass 50% for COc1ccc(OC)c(C(=O)/C=C/c2cc3c(c(OC)c2OC)OCO3)c1 ?
Ans: MET

Q: Could you verify whether the entry C#CCOc1ccc2ncnc(Nc3ccc(NC(=O)CCl)cc3)c2c1 shows growth of no less than 50%?
Ans: NOT MET

Q: Given O=C(NCCCN1CCOCC1)c1cccc(N2C(=O)/C(=C/c3ccc(F)cc3)SC2=S)c1 , state whether its growth is at least 50%.
Ans: MET

###

- Test system: A549/ATCC NSCLC
- experiment.description: NCI-60 one-dose screen, 48 h
- experimental.setup: 10 µM unless noted
- Experimental: Growth inhibition of the A549/ATCC human Non-Small Cell Lung tumor cell line is measured as a screen for anti-cancer activity. Cells are grown in 96 well plates and exposed to the test compound for 48 hours. Compounds are tested at a single concentration, which is 10^-5 M for most compounds. The reported endpoint is percent growth (GI% or GIPRCNT), where numbers from 0 - 100% represent growth inhibition, and numbers from -100% - 0 represent cell death. […]
About 83,000 compounds went through this panel and 20% of them were active in at least one assay; those are over-represented in the sample as a whole. Calls of active or inactive are those of the source. How the source made its calls: active means growth percent below 10; inactive means the rest.
Your reply should match one of these outcome classes. active, inactive

Worked examples, 5 molecules total:
{"columns": ["molecule", "experimental.target", "category.label"],
 "data": [
  ["Cc1ccc(NC(=S)NNC(=S)NNc2ccccc2)cc1C", "A549/ATCC NSCLC", "inactive"],
  ["O=[N+]([O-])c1ccc(-c2nc(N3CCOCC3)c3c4c(sc3n2)CCCC4)cc1", "A549/ATCC NSCLC", "inactive"],
  ["C=CCn1c(SCC(=O)Nc2ccc(C(=O)/C=C/c3cc4cc(OC)ccc4nc3Cl)cc2)nnc1-c1ccc(Br)cc1", "A549/ATCC NSCLC", "inactive"],
  ["N=C(N)c1ccc(-c2ccc(-c3ccc(F)cc3)o2)o1", "A549/ATCC NSCLC", "active"],
  ["COc1cc(CNS(=O)(=O)c2ccc(C)cc2)ccc1OCc1cn(-c2ccc(F)cc2)nn1", "A549/ATCC NSCLC", "inactive"]
]}

Q: # fetch the recorded call for CCCCC[C@@H]1Cc2cc(O)c(C(=O)O)c3c2[C@H](C[C@]2(OC[C@@H](CC(=O)[C@@](C)(CC)C(=O)OC)[C@@H]2C)O3)O1 here
Ans: inactive

Q: How did this test come out for OCCNCCCOc1ccc2ncnc(Nc3ccc(Oc4cccc(C(F)(F)F)c4)c(Cl)c3)c2c1 ?
Ans: inactive

Q: Hi, do you know how COc1ccc(/C=N/C2=C(C#N)C(c3cccc(Cl)c3)c3c(ccc4ccccc34)O2)cc1 (centres undefined) came out in this test?
Ans: inactive

Q: Recorded test outcome, item Cc1cccnc1NC(=S)Nc1ncccc1C
Ans: inactive
